Reference source for all entries: PubChem BioAssay

Measured z-score by item
experiment.summary: basal CRE-LacZ reporter activity in PC12 – cell-based, unstimulated, primary screen (AID 1145)
recorded.conditions: no forskolin, luminescence, 4.5 h, higher = more signal, called active from +8 up or from −8 down
# output: bare number, no unit

Known results for molecules:
Memo: CCN(CC)c1ccc(N2CC=CC34O[C@@H]5C=CCCOC(=O)C5[C@H]3C(=O)N(CCCO)[C@@H]4C2=O)cc1 (stereo partly drawn) , reported z-score: 0.0605

Documented z-score of `COCCCNC(=O)[C@@]1(C)c2ccccc2C(=O)N(Cc2ccccc2)[C@H]1c1ccc(CO)cc1` : -0.295

Reported z-score ( `Cc1ccccc1/C=C/C=O` ) = -0.204

Input CS(=O)(=O)CCOC(=O)C1=CC(c2ccc(CO)cc2)=CC(c2cccs2)N(Cc2cccc(OC(F)(F)F)c2)C=C1C(=O)OCCS(C)(=O)=O (stereo not drawn) . Output z-score: 0.695

Notebook: `Cc1ccc([C@H]2C(C(=O)O)=C[C@@H](C(C)C)N2S(=O)(=O)c2ccc(C)cc2)cc1` , z-score read as -0.424

Sample `C=C(CCCC)C(=O)CC[C@@H](OC(=O)c1ccccc1-c1ccccc1C(=O)O)c1ccc(CO)o1` ; z-score observed: -0.219

Value of measured z-score for the entry `O=C1O[C@H](c2ccccc2)[C@H](c2ccccc2)N2[C@H]1[C@@H](C(=O)NC[C@H](O)c1ccccc1)[C@]1(C(=O)Nc3ccc(C#CC4=CCCCC4)cc31)[C@H]2c1ccc(O)cc1` : -0.602

Could you now consider this next molecule?
Short answer for `C=C(CCCC)/C(=C/C[C@@H](OC(=O)c1ccncc1)c1ccc(CO)o1)c1cc(C(=O)OC)ccc1OC` : z-score was 6.18

---

target.under.test: Fibroblast growth factor 2 (Homo sapiens) (UniProt P09038)
Sequence (P09038 whole entry, looked up): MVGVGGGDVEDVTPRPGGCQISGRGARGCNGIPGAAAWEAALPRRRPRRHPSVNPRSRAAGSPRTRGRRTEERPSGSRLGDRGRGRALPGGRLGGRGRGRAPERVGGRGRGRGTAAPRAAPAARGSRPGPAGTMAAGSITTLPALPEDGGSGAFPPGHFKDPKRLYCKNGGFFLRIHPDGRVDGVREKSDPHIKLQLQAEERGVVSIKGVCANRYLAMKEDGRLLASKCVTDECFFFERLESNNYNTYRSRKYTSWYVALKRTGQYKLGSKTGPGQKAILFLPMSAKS
experiment.summary: basic fibroblast growth factor binding to printed compounds – biochemical, small-molecule microarray, 635/667 nm fluorescence, primary screen (AID 1133)
recorded.conditions: FGF2, fluorescence 635/667, higher = more signal
Recorded composite z-score, one value per entry.
Form rule: numeric answer, no unit written next to it.

Worked cases, composite z-score given:
Briefly, composite z-score measured for `O=c1cccc(-c2cccc3ccccc23)o1` : -0.32

Documented composite z-score of Cc1ccc(C(C)CC(O)C2C=CC3C(=O)NC(=O)C3N2Nc2ccccn2)o1 (configuration not stated) : 0.243

What the record says about COc1ccc(C(O)C2C=CC3C(=O)N(c4ccccc4)C(=O)C3N2Nc2ccccc2)c2ccccc12 (configuration not stated) : composite z-score is -0.702

---
Given item CCN(CC)c1ccc(N2CC=CC34O[C@@H]5C=CCCOC(=O)C5[C@H]3C(=O)N(CCCO)[C@@H]4C2=O)cc1 (some centres not stated) , the value recorded as its composite z-score is -0.175

Value of composite z-score reported for the compound `O=C1O[C@H](c2ccccc2)[C@H](c2ccccc2)N2[C@H]1[C@@H](C(=O)NC[C@H](O)c1ccccc1)[C@]1(C(=O)Nc3ccc(C#CC4(O)CCCCCC4)cc31)[C@H]2c1ccccc1OCCO` is 1.54

---

Each entry below carries its recorded composite z-score.
experiment.summary: small molecules captured by biotinylated probe aFSTL3 – biochemical, small-molecule microarray, fluorescence 635/667, stem cell growth factor project, primary screen (AID 1064);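 note: measures binding of the biotinylated anti-FSTL3 antibody to printed compounds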
recorded.conditions: higher = more signal

composite z-score reported for this compound `CN(C)CCCC[C@@H]1NC(=O)[C@@H]2C[C@H](C(=O)NCc3ccc(F)cc3)[C@H](c3cccc(OCCO)c3)N2C1=O` : -0.173

// below: composite z-score requested for another compound
For `[N-]=[N+]=NCc1ccccc1C[C@]1(C(=O)NCCN2CCOCC2)N=C(c2ccc(OCCCO)cc2)O[C@H]1c1ccccc1CN=[N+]=[N-]` the compound record lists composite z-score as -0.199
